Reference source for all entries: patent US4762828A

Test: minimal neurotoxic dose
Parameters: species or system mice
Settings: mouse, in vivo, ip
Test readout: minimal neurotoxic dose (mg/kg)
Provide only the numeric value, understood in mg/kg.

Fill in: minimal neurotoxic dose of c1nnc2n1C1CC3CC(CC2C3)C1 [Example 2] is ___
6
